# measurement.description: in vitro
# condition.parameters: human
# reported IC50 at 24 h; entries follow

compound	inequality.sign	IC50 at 24 h [µM]
COC(=O)CC(C)(O)CC(=O)OC1CC2(C)C3=C(C(=O)CC2C(C)(C)C1OC(C)=O)C1(C)CCC(C(C)CCC(=O)C(C)(C)O)C1(C)CC3O (centres unmarked)	>	100
COC(=O)C[C@@](C)(O)CC(=O)O[C@@H]1C[C@]2(C)C3=C(C(=O)C[C@H]2C(C)(C)[C@H]1OC(C)=O)[C@]1(C)CC[C@H]([C@H](C)CCC(=O)O)[C@@]1(C)CC3	=	55.3
COC(=O)C[C@@](C)(O)CC(=O)O[C@@H]1C[C@]2(C)C3=C(C(=O)C[C@H]2C(C)(C)[C@H]1OC(C)=O)[C@]1(C)CC[C@H]([C@H](C)CCC(=O)C(C)(C)O)[C@@]1(C)CC3=O	=	58
CC(=O)O[C@H]1[C@H](OC(=O)C[C@](C)(O)CC(=O)O)C[C@]2(C)C3=CC[C@]4(C)[C@@H]([C@H](C)CCC(=O)C(C)(C)O)CC[C@@]4(C)C3=CC[C@H]2C1(C)C	>	100
COC(=O)CC(C)(O)CC(=O)OC1C(O)CC2(C)C3=C(C(=O)CC2C1(C)C)C1(C)CCC(C(C)CCC(=O)C(C)(C)O)C1(C)CC3 (centres unmarked)	=	66.1

====

# reported pIC50; entries follow
# Tested on: Colo 320
# measurement.description: Antiproliferative MTT assay, 72 h
# Type: cell-based
# condition.parameters: Homo sapiens, 6 × 10^3 cells/well, resistant colon adenocarcinoma
pIC50: −log10 of the molar value.

compound	assayed.target	pIC50
COC(=O)C[C@@](C)(O)CC(=O)O[C@@H]1C[C@]2(C)C3=C(C(=O)C[C@H]2C(C)(C)[C@H]1OC(C)=O)[C@]1(C)CC[C@H]([C@H](C)CCC(=O)C(C)(C)O)[C@@]1(C)CC3=O [Compound 4, pholiol O]	Colo 320	4.38
COC(=O)CC(C)(O)CC(=O)OC1CC2(C)C3=C(C(=O)CC2C(C)(C)C1OC(C)=O)C1(C)CCC(C(C)CCC(=O)C(C)(C)O)C1(C)CC3O (stereo not drawn) [Compound 2, pholiol M]	Colo 320	4.49
CC(=O)O[C@H]1[C@H](OC(=O)C[C@](C)(O)CC(=O)O)C[C@]2(C)C3=CC[C@]4(C)[C@@H]([C@H](C)CCC(=O)C(C)(C)O)CC[C@@]4(C)C3=CC[C@H]2C1(C)C [Compound 6, pholiol Q]	Colo 320	4.16

====

# System: MCF-7
# measurement.description: Cytotoxic MTT assay, 24 h
# condition.parameters: Homo sapiens, MCF7, 24 h, read-out: Cytotoxic activity IC50 MCF-7 Mean
measured.quantity: IC50 (µM)

compound	inequality.sign	obs.value
COC(=O)C[C@@](C)(O)CC(=O)O[C@@H]1C[C@]2(C)C3=C(C(=O)C[C@H]2C(C)(C)[C@H]1OC(C)=O)[C@]1(C)CC[C@H]([C@H](C)CCC(=O)O)[C@@]1(C)CC3	=	43
COC(=O)C[C@@](C)(O)CC(=O)O[C@@H]1C[C@]2(C)C3=C(C(=O)C[C@H]2C(C)(C)[C@H]1OC(C)=O)[C@]1(C)CC[C@H]([C@H](C)CCC(=O)C(C)(C)O)[C@@]1(C)CC3=O	>	100
COc1cccc2c1C(=O)c1c(O)c3c(c(O)c1C2=O)C[C@@](O)(C(=O)CO)C[C@@H]3O[C@H]1C[C@H](N)[C@H](O)[C@H](C)O1 [Dox, doxorubicin, reference compound]	=	5.73
COC(=O)CC(C)(O)CC(=O)OC1C(O)CC2(C)C3=C(C(=O)CC2C1(C)C)C1(C)CCC(C(C)CCC(=O)C(C)(C)O)C1(C)CC3 (stereo not drawn)	=	43.7
CC(=O)O[C@H]1[C@H](OC(=O)C[C@](C)(O)CC(=O)O)C[C@]2(C)C3=CC[C@]4(C)[C@@H]([C@H](C)CCC(=O)C(C)(C)O)CC[C@@]4(C)C3=CC[C@H]2C1(C)C	=	43.8
COC(=O)CC(C)(O)CC(=O)OC1CC2(C)C3=C(C(=O)CC2C(C)(C)C1OC(C)=O)C1(C)CCC(C(C)CCC(=O)C(C)(C)O)C1(C)CC3O (stereo not drawn)	>	100
